Reported Cmax values are given for each entry in this list.
Test: Cmax in C57BL/6J mouse brain at 10 mg/kg, po administered once a day for 4 consecutive days by mass spectrometry based UHPLC analysis
Format: ADME, organism-based
Design: route oral, dose 10 mg/kg, time 4 day
quantity-kind: Cmax (ng/mL)

INSERT INTO measurements (item_smiles, quantity_kind, units_of_measure, experimental_value) VALUES
  ('C[C@@H]1COCCN1c1nc(-c2cnc(N)cc2C(F)F)nc(N2[C@H](C)COC[C@@H]2C)n1', 'Cmax', 'ng/mL', 1320),
  ('CO[C@H]1C[C@@H]2CC[C@@H](C)[C@@](O)(O2)C(=O)C(=O)N2CCCC[C@H]2C(=O)O[C@H]([C@H](C)C[C@@H]2CC[C@@H](OCCO)[C@H](OC)C2)CC(=O)[C@H](C)/C=C(\C)[C@@H](O)[C@@H](OC)C(=O)[C@H](C)C[C@H](C)/C=C/C=C/C=C/1C', 'Cmax', 'ng/mL', 43);
